pIC50: recorded values
Target: sChoK (S. pneumoniae isoform of choline kinase, LicA) (Streptococcus pneumoniae)
Construct: gene pck; ChoK activity measured in cell extracts
Sequence (Q8DPI4 1-289): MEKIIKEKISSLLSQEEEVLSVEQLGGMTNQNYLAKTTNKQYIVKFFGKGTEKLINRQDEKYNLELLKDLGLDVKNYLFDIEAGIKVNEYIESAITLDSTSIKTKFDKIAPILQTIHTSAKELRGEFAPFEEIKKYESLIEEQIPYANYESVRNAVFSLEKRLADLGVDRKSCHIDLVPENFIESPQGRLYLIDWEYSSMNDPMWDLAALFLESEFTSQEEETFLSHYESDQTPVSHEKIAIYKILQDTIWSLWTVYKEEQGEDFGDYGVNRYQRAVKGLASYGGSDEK
Experiment: colorimetric ChoK activity assay in cell extracts
Format: biochemical
The meaning of pIC50 here: minus log10 of the concentration in molar units.

COMPOUND: CN(c1ccc(Cl)cc1)c1cc[n+](Cc2ccc(-c3ccc(C[n+]4ccc(N(C)c5ccc(Cl)cc5)c5ccccc54)cc3)cc2)c2ccccc12 [RSM-932A]
pIC50: 6.30

Then this compound:
Could you share which pIC50 value was measured for CN(C)c1cc[n+](Cc2ccc(CCCCc3ccc(C[n+]4ccc(N(C)C)cc4)cc3)cc2)cc1 [MN58b] ? 3.71

These entries and their values trace back to paper PMC6813931.
